Hello, the source for this data is patent US20230150974A1, in case you need it.

# TGT: HiBit-BRG1 (Homo sapiens, UniProt P51532)
# Construct: expressed in transfected cells
# Sequence (P51532 whole entry): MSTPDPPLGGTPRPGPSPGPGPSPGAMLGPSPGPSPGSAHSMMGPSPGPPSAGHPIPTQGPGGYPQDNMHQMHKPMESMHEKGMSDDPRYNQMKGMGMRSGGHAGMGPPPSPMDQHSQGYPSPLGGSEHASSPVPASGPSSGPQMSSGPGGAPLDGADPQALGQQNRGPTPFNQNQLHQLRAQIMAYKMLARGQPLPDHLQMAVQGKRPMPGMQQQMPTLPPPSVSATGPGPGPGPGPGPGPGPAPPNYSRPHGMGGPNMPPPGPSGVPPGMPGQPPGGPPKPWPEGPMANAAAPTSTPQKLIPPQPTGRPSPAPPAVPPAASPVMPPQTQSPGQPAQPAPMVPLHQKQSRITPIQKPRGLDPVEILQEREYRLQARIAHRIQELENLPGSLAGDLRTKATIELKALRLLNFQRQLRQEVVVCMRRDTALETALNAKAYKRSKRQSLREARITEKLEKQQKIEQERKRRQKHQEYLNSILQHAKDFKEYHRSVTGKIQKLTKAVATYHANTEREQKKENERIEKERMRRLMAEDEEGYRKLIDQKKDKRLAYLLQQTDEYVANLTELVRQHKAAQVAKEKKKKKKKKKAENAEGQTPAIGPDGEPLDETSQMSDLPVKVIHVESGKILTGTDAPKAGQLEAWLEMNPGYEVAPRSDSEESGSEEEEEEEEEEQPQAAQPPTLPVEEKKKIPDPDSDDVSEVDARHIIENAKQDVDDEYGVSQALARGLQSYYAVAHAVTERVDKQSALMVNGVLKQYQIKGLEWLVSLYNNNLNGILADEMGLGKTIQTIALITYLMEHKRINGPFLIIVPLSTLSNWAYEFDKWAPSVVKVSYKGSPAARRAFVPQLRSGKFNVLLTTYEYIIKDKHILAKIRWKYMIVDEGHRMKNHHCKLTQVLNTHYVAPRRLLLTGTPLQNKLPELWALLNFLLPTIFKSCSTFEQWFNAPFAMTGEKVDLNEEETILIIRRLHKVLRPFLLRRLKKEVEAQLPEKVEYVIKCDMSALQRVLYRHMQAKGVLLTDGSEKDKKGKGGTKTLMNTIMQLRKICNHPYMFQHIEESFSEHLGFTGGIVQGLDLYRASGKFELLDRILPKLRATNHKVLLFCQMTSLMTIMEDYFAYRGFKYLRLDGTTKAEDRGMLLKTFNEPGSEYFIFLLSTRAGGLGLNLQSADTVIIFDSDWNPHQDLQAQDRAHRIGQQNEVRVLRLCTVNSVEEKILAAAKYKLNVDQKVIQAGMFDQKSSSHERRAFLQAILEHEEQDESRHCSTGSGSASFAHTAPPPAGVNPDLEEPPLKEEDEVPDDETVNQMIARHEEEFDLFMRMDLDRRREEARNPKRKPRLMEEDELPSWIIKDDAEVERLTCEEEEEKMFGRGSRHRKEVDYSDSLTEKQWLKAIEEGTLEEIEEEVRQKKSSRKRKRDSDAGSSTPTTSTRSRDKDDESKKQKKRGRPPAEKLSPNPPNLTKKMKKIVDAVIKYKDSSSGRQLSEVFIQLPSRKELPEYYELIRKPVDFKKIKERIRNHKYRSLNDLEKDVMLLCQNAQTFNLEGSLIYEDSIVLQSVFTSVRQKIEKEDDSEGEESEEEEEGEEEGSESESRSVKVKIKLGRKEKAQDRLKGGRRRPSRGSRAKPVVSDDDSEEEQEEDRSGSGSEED
# ASSAY SUMMARY: HiBit-BRG1 cell-based degradation assay (Nano-Glo HiBiT Lytic Detection)
# CONDITIONS USED: HeLa cells expressing HiBit-BRG1 and LgBit, 24 h; read-out: BRG1 HiBit Degradation Maximum (%)
ASSAY METRIC: Dmax

Recorded results for 5 molecules are shown here.
Cc1ncsc1-c1ccc(CNC(=O)[C@@H]2C[C@@H](O)CN2C(=O)[C@@H](NC(=O)CCCCCCCCCCCCCCCC(=O)NCc2ccc(CCNc3cc(-c4ccccc4O)nnc3N)cc2)C(C)(C)C)cc1 | < 50%
Cc1ncsc1-c1ccc(CNC(=O)[C@@H]2C[C@@H](O)CN2C(=O)[C@@H](NC(=O)CCN2CCN(CC(=O)NCc3ccc(CCOc4cc(-c5ccccc5O)nnc4N)cc3)CC2)C(C)(C)C)cc1 | < 50%
Cc1ncsc1-c1ccc([C@H](C)NC(=O)[C@@H]2C[C@@H](O)CN2C(=O)[C@@H](c2cc(OCCN3CC4(C3)CN(CCC(=O)NCc3ccc(CCOc5cc(-c6ccccc6O)nnc5N)cc3)C4)no2)C(C)C)cc1 | > 50%
Cc1ncsc1-c1ccc([C@H](C)NC(=O)[C@@H]2C[C@@H](O)CN2C(=O)[C@@H](c2cc(OCCN3CCC(OC4CN(C(=O)c5ccc(CCOc6cc(-c7ccccc7O)nnc6N)cc5)C4)CC3)no2)C(C)C)cc1 | < 50%
Cc1ncsc1-c1ccc(CNC(=O)[C@@H]2C[C@@H](O)CN2C(=O)[C@@H](NC(=O)CCCCC(=O)NCc2ccc(CCOc3cc(-c4ccccc4O)nnc3N)cc2)C(C)(C)C)cc1 | < 50%

Query: Dmax; subject: "Cc1ncsc1-c1ccc([C@H](C)NC(=O)[C@@H]2C[C@@H](O)CN2C(=O)[C@@H](c2cc(OCCN3CC4=C(C3)CN(C(=O)c3ccc(CCOc5cc(-c6ccccc6O)nnc5N)cc3)C4)no2)C(C)C)cc1"
> 75%

Field request: Dmax | item: "Cc1ncsc1-c1ccc([C@H](C)NC(=O)[C@@H]2C[C@@H](O)CN2C(=O)[C@@H](c2cc(OCCN(C)Cc3ccc(CCOc4cc(-c5ccccc5O)nnc4N)cc3)no2)C(C)C)cc1"
> 75%

Quick one: Dmax of "Cc1ncsc1-c1ccc([C@H](C)NC(=O)[C@@H]2C[C@@H](O)CN2C(=O)[C@@H](NC(=O)CCCCCCCCCCN2CCN(Cc3ccc(CCOc4cc(-c5ccccc5O)nnc4N)cc3)CC2)C(C)(C)C)cc1" ?
< 50%

Recorded Dmax for Nc1nnc(-c2ccccc2O)cc1N1CCN(CC(=O)N2CC(COc3cccc4c3C(=O)N(C3CCC(=O)NC3=O)C4=O)C2)CC1 (stereo not shown) , please?
< 50%
